Test details: protein stability index of a GFP-peptide fusion (GPS, HEK-293T) (PSI 1-6); higher = more stable;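 note: 24-mer peptide tiles fused after GFP, lentivirally expressed, FACS-sorted into six equal bins by GFP/DsRed ratio, decoded by Illumina sequencing, PSI is the read-weighted mean bin number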
Condition notes: treatment: MLN4924 1 uM, 8 h; c terminus: a fixed tail appended
# protein stability index listing for each entry below
In your answer, state the number alone without any accompanying words.

As a guide, the following entries are already answered.
PTPSTPRPTPQDWLHRRAQILEIL [ADAMTS4]	2.98
HRGPSGHTEASAQRSHMGKLKEPQ	4.87
LQSCQAEIIELRRTVNALEIELQA [KRT34]	2.11
VNSQFTAAVFKETFKSLSHIDPDV [ALG2]	3.05
DEEVSGSSKTITAEIPDGPPVVAH [C18orf25]	5.41
WIQFNHPYTEKPRLWHTACASDEG [KLHDC2]	2.4

protein stability index for FGRGSRTVDLELELQIELLRETKR [ARFIP2] is 2.32

----------
Test details: protein stability index of a GFP-peptide fusion (GPS, HEK-293T) (PSI 1-6); higher = more stable
Condition notes: treatment: DMSO; c terminus: a fixed tail appended
Classification field: enter T for protein stability index values not below 3, F for values below it.

Observe how each entry below is paired with its result.
EDLLAKEKDNSRRMLTDKEREMAE [LMNB1]	T
ERAVKRMRHLSTGTMTGLAIQYAL [MATN2]	F
TPINQNVSLHQASLGGCSQDFLLF [NFE2L1]	F
QSTVKCLTVLQRLDVWLSGGNDLC [WDR41]	F
SANFHSLDDIYYFGGQNAHNQIAI [FUT8]	F
EEPELVFTLGDCDVIQALDLSVPL [FKBP8]	T
SVDWLSQSSCSGPTHTPRPADFSL [VENTX]	T
KAILKNISVLAFSVCFIFTITIGM [SLC29A1]	T
PEGPEPAAPGKQPGRGHTHAAQGG [ELOA2]	T
NDGWTPLHVAAHYGRDSFVRLLLE [ASB7]	F

Please check the record KTSVEKANAQIQILTRSWEEVSTL [CD207] and state if its protein stability index is at or above 3.
T

Decide: is the reported value of protein stability index for MERSPDVSPGPSRSFKEELLCAVC [TRIM35] equal to or greater than 3?
T

Could you please find out whether FKNSLLQKELKKAQMAKAAAEERA [WEE1] has protein stability index that meets 3 or exceeds it?
T

hey, is protein stability index for this one >= 3? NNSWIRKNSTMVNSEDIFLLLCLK [TRIM43]
F

Determine whether measured protein stability index meets or exceeds 3 for KLQYQLRNVRERIAKNLVEKGILT [GOLPH3L]
F

----------
Test details: protein stability index of a GFP-peptide fusion (GPS, HEK-293T) (PSI 1-6); higher = more stable
Condition notes: treatment: DMSO; c terminus: a fixed tail appended
We begin with a simple list: items and their reported protein stability index.
Just the number, please, no unit after it.

Some sequences with recorded protein stability index:
FLNDRLANYLEKVRQLERENAELE [KRT36]	3.21
YGSGDTPGGPCDSTLGGDIRESDP [TBX6]	5.25
ENWVCLSCYQVYCGRYINGHMLQH [HDAC6]	2.33
AAGTHDGSVYFWATPRQVPSLQHL [WSB1]	2.52
AQKLTIRLSSRYRYGQLIEINSHS [TRIP13]	2.17
SPIKLSPTSPVYRGSSSGPSSPAR [MTUS2]	4.34

Here's the next entry for you.
Note to self: protein stability index recorded for GADCGIQWWNAVFIMLLIGIVLPV [LYSMD4] was 2.88

----------
Test details: protein stability index of a GFP-peptide fusion (GPS, HEK-293T) (PSI 1-6); higher = more stable
Condition notes: treatment: MLN4924 1 uM, 8 h; c terminus: a fixed tail appended
Measured protein stability index by item
Respond with the number and no other words.

Record DSGQNAWLSYRLLKASEPGLFAVG [PCDHGA10] . Reported protein stability index: 2.13

Given item LPCTSRCPRPCRESAFKLSTGTSR [SCNN1D] , the value recorded as its protein stability index is 2.9

Recorded result, AQKLTIRLSSRYRYGQLIEINSHS [TRIP13] , protein stability index: 2.01

For record KYVVSGFDVDHGICIMDAENITTV [WDR88] the listed protein stability index is 2.25

Measured protein stability index, PGGDQGGPPVGPLSLGLATVDIQN [WAS] : 4.71

protein stability index measured on KEGDCAPEEKIWEELSVLEVFEGR [MAGEA6] = 4.87

get_value(item= FHGKYSTINPLWHIRHLGWNPDAR [GLT8D2] , readout=protein stability index) returns 2.31

Value of measured protein stability index for the entry AHSNEILIFSVQPKSLVRLSLEAV [KLHDC2] : 2.6

The reported protein stability index of the sequence APSLSGKGNPEEEDVDTSQVLYEW [CTNNB1] was 5.15

Data point: TASTAPPVPATAPSPAPAVAAAAA [SNAP91] ; protein stability index = 5.08

Quick note, protein stability index for VTSFPDADAFHHQVHDDDLLSSSE [EMD] landed at 5.33

So for ASVATWAIFVHRVGQPSIGGKLSP [CTBP1-DT] , the logged protein stability index turned out to be 2.33

Entry ANNRILAERIAKEIQVIPLQRDDE [IMPA1] , protein stability index reported as 4.04

----------
Recorded protein stability index for the following sequences
Test details: protein stability index of a GFP-peptide fusion (GPS, HEK-293T) (PSI 1-6); higher = more stable
Condition notes: treatment: MLN4924 1 uM, 8 h; c terminus: a fixed tail appended
Write the number on its own, no unit after it.

Would you please look over these solved cases?
SWGIAGETELALVKESGERKVTDS [DLC1]	5.46
YTGIVLLRCRKEFYQLVWSALPFI [POP5]	3.05
QGEMDRKCKQVKEKCKEEFVEEIK [ZMYND11]	5.43
TRDYAPPSRGHAYRDYGHSRRDES [RBMY1A1]	4.61
FQLNQDKMNFSTLRNIQGLFAPLK [POMP]	2.3

protein stability index for ACRFTKCLRVGMLKEGVRLDRVRG [ESRRA] is 2.25

# protein stability index of FGNRIKRVKLISNKGTETDNDPSC [PHTF1] = 4.05

----------
Test details: protein stability index of a GFP-peptide fusion (GPS, HEK-293T) (PSI 1-6); higher = more stable
Condition notes: treatment: DMSO; c terminus: a fixed tail appended
Everything with protein stability index lower than 4 is false (0); everything else, including exactly 4, is true (1).

GSFTVRADHGEPIGRGTKVILHLK [HSP90AB1]	false (0)

Hi, just wondering whether MYSEIQRERADIGGLMARPEYREW [FAM107A] shows protein stability index of 4 or higher.
false (0)

Does EDSVFEERPERRSGPPASYCAKLC [C8orf76] have a reported protein stability index of at least 4?
true (1)

Has AIAMYFLPPSPRFLVMKGQEGAAS [SLC2A12] a recorded protein stability index greater than or equal to 4?
false (0)

Check this sequence for protein stability index at or above 4: DGRFEKRQGNPSWKKQQKCDECGK [ZNF396]
true (1)

// inclusive: protein stability index at least 4? input: VCSDYASGYHYGVWSCEGCKAFFK [ESR2]
false (0)

Determine whether this sequence has protein stability index no lower than 4: HSQNLAKQQRNEVSFVIHNLPIIA [SEPHS2]
false (0)

API: above_or_equal(metric=protein stability index, cutoff=4) for item MAVAFLSAQRSKDPNSQVGACIVN [DCTD]
false (0)

Is protein stability index for AKAPPTACYAGAAPAPSQVKSKAK [CEBPB] at or above 4?
true (1)

Answer whether protein stability index of ELLSAPPPDLGAQRRHGWNPKDCS [SPSB2] is greater than or equal to 4.
false (0)

Record IEIVHISTVQILTEGFPPGGGNAR [ZFYVE21] ; criterion: protein stability index no lower than 4. Met?
false (0)

----------
Readings of protein stability index for the listed sequences
Test details: protein stability index of a GFP-peptide fusion (GPS, HEK-293T) (PSI 1-6); higher = more stable
Condition notes: treatment: DMSO; c terminus: a fixed tail appended

Consider the worked cases shown below.
DMKPITVGGKIVGSLCAIAGVLTI [KCNA4]	2.88
DRLEEQLPWLSLRALKFRERDALE [DNAAF3]	3.4
PSEWRPLSEGCRAELAETIVYARV [CCDC3]	3.14

So, FYNTEDIKDWEDRFYLLLFSFLGL [PTGFR] ? Its protein stability index was 2.41

Value of measured protein stability index for the entry DYSFLSLGVYSALREIAFTRQLHE [ATE1] : 2.99

SDLLSEFKKHDADKVGLITLSDWA [PPEF2] has a reported protein stability index of 3.35

Per the record, MMYSAELWRYRTITFSGRPSRVHA [FBXO39] has protein stability index of 2.23

Sample EGCELPDLPSSLLLPEDMALRNLP [SMG5] ; protein stability index observed: 4.4

Kindly note the recorded protein stability index for RTIYHMFIAGLCVFIISTLAIDFI [SOAT2] , which is 3.14

Looking up FLRCVTAALIYFAISITAIAKYSD [CMTM3] , I see its protein stability index listed as 3.41

// recorded protein stability index for IPSWQIRTVKLIRYVSNWDFFIVG [PKD2L1] : 2.79

So, KALLYLPIAPEVEDPEENPYGPPP [RBBP5] ? Its protein stability index was 3.94

# sequence AAAYTFLQRNPKHELTAKYLNYYQ [P3H4] ; its protein stability index = 2.25
